STUDY TARGET: UniProtKB P31652
Sequence (P31652 whole entry): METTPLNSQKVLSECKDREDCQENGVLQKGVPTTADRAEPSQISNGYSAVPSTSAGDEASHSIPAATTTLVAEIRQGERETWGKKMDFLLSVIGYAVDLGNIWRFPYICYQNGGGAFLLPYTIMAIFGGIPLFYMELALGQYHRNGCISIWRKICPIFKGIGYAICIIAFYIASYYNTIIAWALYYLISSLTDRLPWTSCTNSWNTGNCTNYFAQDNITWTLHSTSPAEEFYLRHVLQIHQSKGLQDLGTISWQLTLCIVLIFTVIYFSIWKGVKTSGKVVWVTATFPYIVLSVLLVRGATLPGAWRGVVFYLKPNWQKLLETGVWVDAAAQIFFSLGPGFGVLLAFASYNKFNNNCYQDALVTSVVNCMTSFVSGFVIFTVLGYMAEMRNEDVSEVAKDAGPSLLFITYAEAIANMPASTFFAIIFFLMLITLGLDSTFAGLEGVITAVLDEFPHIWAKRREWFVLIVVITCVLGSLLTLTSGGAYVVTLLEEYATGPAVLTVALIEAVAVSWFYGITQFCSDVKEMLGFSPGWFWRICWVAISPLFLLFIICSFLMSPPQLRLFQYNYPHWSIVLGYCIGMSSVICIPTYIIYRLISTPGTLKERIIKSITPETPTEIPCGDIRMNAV
TEST DESCRIPTION: Compound was tested in vitro for inhibition of Serotonin transporter uptake at serotonin uptake site
READOUT: pIC50
Expect pIC50 as a plain number equal to -log10 of the molar concentration.

Examples from the recorded data:
Kindly note the recorded pIC50 for Cc1c(CC(C)N)ccc2c1CCN2 (stereo not given) , which is 6.42

Kindly note the recorded pIC50 for CCC(N)Cc1ccc2c(c1)CCN2 (stereo not given) , which is 5.44

Kindly note the recorded pIC50 for CC(N)Cc1ccc2c(c1Cl)CCN2 (stereo not given) , which is 6.47

Kindly note the recorded pIC50 for CCN1CCc2cc(CC(C)N)c(C)cc21 (stereo not given) , which is 5.66

Kindly note the recorded pIC50 for CCC(N)Cc1ccc2c(c1Cl)CCN2 (stereo not given) , which is 6.52

Next:
Kindly note the recorded pIC50 for Cc1cc(N(C)C)ccc1CC(C)N (stereo not given) , which is 7.00

Kindly note the recorded pIC50 for CC(C)(N)Cc1ccc2c(c1)CCN2 , which is 5.72

Kindly note the recorded pIC50 for CCN1CCc2c1ccc(CC(C)N)c2C (stereo not given) , which is 5.82

Kindly note the recorded pIC50 for CC(N)Cc1ccc2c(c1)CCN2 (stereo not given) , which is 5.74
